This collection of values is drawn from the supplement of paper PMC9112550.

Tested on: Escherichia coli TOP10
Experiment: shrunken log2 fold change of peptide-encoding DNA abundance (4.5 h post-induction vs induction); higher = less antimicrobial activity (less host growth inhibition)
Conditions: time post-induction: 4.5 h; library: site-saturation at positions 5, 18, 19, 20
Label Yes for high-side shrunken log2 fold change (at or above -0.1) and No for low-side shrunken log2 fold change (below it).

Before answering, review these 5 worked examples.
RRIRYRPPRLPRPRPRPICHPRP; No
RRIRIRPPRLPRPRPRPYPLPRP; No
RRIRNRPPRLPRPRPRPGSPPRP; No
RRIRGRPPRLPRPRPRPDTVPRP; No
RRIRCRPPRLPRPRPRPHGWPRP; Yes

Input: Answer whether shrunken log2 fold change of RRIRHRPPRLPRPRPRPMVKPRP is greater than or equal to -0.1.
Output: Yes

Input: Is shrunken log2 fold change at least -0.1? Consider RRIRIRPPRLPRPRPRPLYYPRP
Output: No

Input: Is shrunken log2 fold change for RRIRYRPPRLPRPRPRPHAWPRP at or above -0.1?
Output: No

Input: In plain terms: is recorded shrunken log2 fold change at least -0.1 for RRIRQRPPRLPRPRPRPRMLPRP ?
Output: Yes

Input: Hi, just wondering whether RRIRQRPPRLPRPRPRPGWKPRP shows shrunken log2 fold change of -0.1 or higher.
Output: Yes

Input: Decide: shrunken log2 fold change of RRIRKRPPRLPRPRPRPDQAPRP >= -0.1?
Output: Yes

Input: Threshold query (shrunken log2 fold change >= -0.1) on RRIRKRPPRLPRPRPRPNTHPRP
Output: No

---

Tested on: Escherichia coli TOP10
Assay: shrunken log2 fold change of peptide-encoding DNA abundance (4.5 h post-induction vs induction); higher = less antimicrobial activity (less host growth inhibition)
Details: time post-induction: 4.5 h; library: site-saturation at positions 5, 18, 19, 20
MEASURED QUANTITY: shrunken log2 fold change
Lab note: jot down the number only; don't add units.

RRIRKRPPRLPRPRPRPWETPRP; 0.696
RRIRHRPPRLPRPRPRPNKCPRP; -0.431
RRIRWRPPRLPRPRPRPQGDPRP; -0.0316
RRIRHRPPRLPRPRPRPVALPRP; -0.112
RRIRIRPPRLPRPRPRPGEHPRP; -0.0955

Input: Quick check: shrunken log2 fold change on Escherichia coli TOP10, item RRIRMRPPRLPRPRPRPNYSPRP ?
Output: -0.416

Input: Enter reported shrunken log2 fold change observed with Escherichia coli TOP10 for RRIRQRPPRLPRPRPRPGAKPRP
Output: 0.177

Input: Lookup: shrunken log2 fold change / Escherichia coli TOP10 / RRIRERPPRLPRPRPRPPHNPRP
Output: 0.637

Input: Give the reported shrunken log2 fold change for RRIRCRPPRLPRPRPRPFMPPRP (system: Escherichia coli TOP10).
Output: -0.402

Input: State its shrunken log2 fold change on Escherichia coli TOP10: RRIRHRPPRLPRPRPRPMMDPRP
Output: -0.214

Input: Hello, I am looking for reported shrunken log2 fold change with Escherichia coli TOP10 for RRIRPRPPRLPRPRPRPMINPRP . Could you help?
Output: -0.179

Input: What is its shrunken log2 fold change for Escherichia coli TOP10? Entry: RRIRNRPPRLPRPRPRPRFIPRP
Output: -0.533

Input: What reported shrunken log2 fold change corresponds to RRIRERPPRLPRPRPRPRKIPRP on Escherichia coli TOP10?
Output: 0.0442

Input: Provide value of shrunken log2 fold change for this record tested with Escherichia coli TOP10: RRIRLRPPRLPRPRPRPWKHPRP
Output: -0.0177

Input: shrunken log2 fold change of RRIRPRPPRLPRPRPRPCPDPRP on Escherichia coli TOP10?
Output: 0.0391

Input: Record lookup: for Escherichia coli TOP10, what shrunken log2 fold change belongs to RRIRPRPPRLPRPRPRPDDNPRP ?
Output: -0.0275

Input: Lab note: need shrunken log2 fold change for RRIRARPPRLPRPRPRPHSIPRP on Escherichia coli TOP10, anyone have it?
Output: -0.344

Input: Any idea what shrunken log2 fold change came out for RRIRMRPPRLPRPRPRPAMSPRP on Escherichia coli TOP10?
Output: 0.177

Input: What is its shrunken log2 fold change for Escherichia coli TOP10? Entry: RRIRCRPPRLPRPRPRPLTKPRP
Output: 0.291

Input: GET /values?readout=shrunken log2 fold change&system=Escherichia coli TOP10&item= RRIRQRPPRLPRPRPRPMLKPRP
Output: -0.106

Input: Write down the reported shrunken log2 fold change of RRIRSRPPRLPRPRPRPIKRPRP , test system: Escherichia coli TOP10.
Output: 0.0449

Input: Query the reported shrunken log2 fold change for Escherichia coli TOP10; item: RRIRKRPPRLPRPRPRPFKWPRP
Output: 0.33

Input: Quick check: shrunken log2 fold change on Escherichia coli TOP10, item RRIRCRPPRLPRPRPRPEAMPRP ?
Output: 0.536

Input: Could you share what shrunken log2 fold change was measured for RRIRARPPRLPRPRPRPTRRPRP , tested on Escherichia coli TOP10?;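 further: peptides expressed intracellularly from a pBAD plasmid library in pooled LB shake-flask culture, induced with 0.3% L-arabinose, DNA abundance read by NGS, three biological replicates, DESeq2 with apeglm shrinkage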
Output: 1.1
